Test system: Wild type
Assay: S. aureus survival, RN4220 and DeltatarO strains – OD600, teichoic acid synthesis inhibitors, primary screen (AID 463173)
Conditions: S. aureus RN4220 wild type/DeltatarO growth, OD600, 18 h, screened at 18.75 µg/mL (by protocol)
The campaign covered roughly 52,000 compounds. About 1,700 (3.3%) were called active. No stated cut-off is given here; in the data, active means survival mostly below about 52% (no sharp cut-off); inactive means mostly above about 56%. The sample as a whole holds a higher share of actives than the screen did.
Give one outcome, nothing more. List: active, inactive

[[record]]
compound = "CCN(CC)C(=O)CSc1nc2cc3c(cc2c(=O)n1CCCC(=O)NCc1ccc(OC)cc1)OCO3"
class_name = "inactive"

[[record]]
compound = "CCCCNC(=O)CSc1nc2cc3c(cc2c(=O)n1CCCC(=O)NCCc1ccc(OC)c(OC)c1)OCO3"
class_name = "inactive"

[[record]]
compound = "CNS(=O)(=O)c1ccccc1C(=O)N/N=C/c1ccc(OC)c(OC)c1"
class_name = "inactive"

[[record]]
compound = "COC(=O)c1c(NC(=O)CCCOc2ccc(C)cc2)sc2c1C(C(=O)OC)CC2 (stereo not given)"
class_name = "active"

[[record]]
compound = "COCCNC(=O)CSc1nc2cc3c(cc2c(=O)n1CCCCCC(=O)NCc1ccc(OC)cc1)OCO3"
class_name = "inactive"

[[record]]
compound = "CCOC(=O)CSc1nc2cc3c(cc2c(=O)n1CCCC(=O)NCCc1ccc(OC)c(OC)c1)OCO3"
class_name = "active"

[[record]]
compound = "Cc1ccc(Nc2nc(C(N)=O)c(NC(=O)c3ccccc3Br)s2)cc1"
class_name = "inactive"

[[record]]
compound = "CC(C)c1ccc(S(=O)(=O)c2nnn3c2nc(N2CCCC2)c2sccc23)cc1"
class_name = "inactive"


Record lookup: outcome of this test for Cc1ccc(C)c(CSc2nnc(C)n3c2cc2sccc23)c1 ?
inactive

Record lookup: outcome of this test for CCOC(=O)CSc1nc2cc3c(cc2c(=O)n1CCCCCC(=O)NCc1ccc(OC)cc1)OCO3 ?
inactive

Record lookup: outcome of this test for Cc1sc2nc(CN(CCc3ccccc3)C(=O)c3ccco3)[nH]c(=O)c2c1C ?
inactive

Record lookup: outcome of this test for COC(=O)c1c(NC(=O)CCCOc2cccc(C)c2)sc2c1C(C(=O)OC)CC2 (stereo not given) ?
active

Record lookup: outcome of this test for Cc1cc(C)cc(NC(=O)CCCc2nnc3n(CC(C)C)c(=O)c4sccc4n23)c1 ?
inactive

Record lookup: outcome of this test for CC1CCCN(S(=O)(=O)c2cc3c4c(c2)CC(=O)N4CCC3)C1 (stereo not given) ?
inactive

Record lookup: outcome of this test for CCOc1ccc(/C=C/C(=O)Nc2sc3c(c2C(=O)OC)C(C(=O)OC)CC3)cc1 (stereo not given) ?
inactive

Record lookup: outcome of this test for COC(=O)c1c(NC(=O)CCCOc2ccc(C(C)(C)C)cc2)sc2c1C(C(=O)OC)CC2 (stereo not given) ?
active

Record lookup: outcome of this test for COc1ccc(CNC(=O)c2cccc(N3CCCS3(=O)=O)c2)cc1OC ?
inactive

Record lookup: outcome of this test for CC1CCc2c(sc(NC(=O)CCCOc3ccc(C(C)(C)C)cc3)c2C(N)=O)C1 (stereo not given) ?
inactive

Record lookup: outcome of this test for COCCCNC(=O)CSc1nc2cc3c(cc2c(=O)n1CCCC(=O)NCc1ccc(OC)cc1)OCO3 ?
inactive

Record lookup: outcome of this test for COC(=O)c1c(NC(=O)/C(C#N)=C/c2ccc(OC)cc2)sc2c1C(C(=O)OC)CC2 (stereo not given) ?
inactive
